Attribution: the supplement of paper PMC10567573

B1: TRIM14 (parent)
chain: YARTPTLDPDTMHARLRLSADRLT

# Variants of: B1
# test_details: protein stability index of a GFP-peptide fusion (GPS, HEK-293T) (PSI 1-6); higher = more stable;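 also: lentivirally expressed fusions sorted by FACS into six bins by GFP to DsRed ratio, PSI derived from sequencing read proportions per bin multiplied by bin number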
# condition: c terminus: a fixed tail appended
reported_endpoint: protein stability index
Give the value as a plain number.

Lab book: protein stability index of S19N noted as 3.01

Lab book: protein stability index of L16P noted as 2.94

***
Lab book: protein stability index of P9H noted as 2.92
